Assay: Chemical stability of the compound in at pH 7.4 measured at 12 hrs by HPLC based non-enzymatic stability assay
Type: physicochemical
Details: buffer, read-out: Stability
So I've got a bunch of compounds here, and I need their remaining at 12 h values.
Give bare numbers, in %.

Sample records with remaining at 12 h:
{"compound": "Nc1ncc(-c2ccc(S(=O)(=O)NCCCCCCC(=O)NCCCC#Cc3cccc4c3CN(C3CCC(=O)NC3=O)C4=O)cc2)nc1C(=O)Nc1ccccc1 (stereo not given)", "readout_name": "remaining at 12 h", "u": "%", "value_measured": 103}
{"compound": "CN1C(=O)CCC(N2Cc3c(C#CCCCNC(=O)CCCCCNS(=O)(=O)c4ccc(-c5cnc(N)c(C(=O)Nc6ccccc6)n5)cc4)cccc3C2=O)C1=O (stereo not given)", "readout_name": "remaining at 12 h", "u": "%", "value_measured": 100}
{"compound": "Nc1ncc(-c2ccc(S(=O)(=O)NCCCCC(=O)NCCOc3ccc(C4CCC(=O)NC4=O)cc3)cc2)nc1C(=O)Nc1ccccc1 (stereo not given)", "readout_name": "remaining at 12 h", "u": "%", "value_measured": 101}
{"compound": "Nc1ncc(-c2ccc(S(=O)(=O)NCCCCCC(=O)NCC#Cc3cccc4c3CN(C3CCC(=O)NC3=O)C4=O)cc2)nc1C(=O)Nc1ccccc1 (stereo not given)", "readout_name": "remaining at 12 h", "u": "%", "value_measured": 103}

Turning to the following compound.
# remaining at 12 h (compound: Nc1ncc(-c2ccc(S(=O)(=O)NCCCCCC(=O)NCC#Cc3cccc4c3CN(C3CCC(=O)NC3=O)C4=O)cc2)nc1-c1nnc(-c2ccccc2)o1 (stereo not given) ) is 105

----------
Experiment: Chemical stability of the compound in at pH 7.4 measured at 48 hrs by HPLC based non-enzymatic stability assay
Assay type: physicochemical
Conditions: buffer, read-out: Stability
So I've got a bunch of compounds here, and I need their remaining at 48 h values.
One number for each entry, in %.

Batch request: remaining at 48 h per item, same order as input.
1. Nc1ncc(-c2ccc(S(=O)(=O)NCCCCC(=O)N3CCN(c4ccc5c(c4)C(=O)N(C4CCC(=O)NC4=O)C5=O)CC3)cc2)nc1-c1nnc(-c2ccccc2)o1 (stereo unspecified)
2. Nc1ncc(-c2ccc(S(=O)(=O)NCCCCC(=O)NCC#Cc3cccc4c3CN(C3CCC(=O)NC3=O)C4=O)cc2)nc1-c1nnc(-c2ccccc2)o1 (stereo unspecified)
3. Nc1ncc(-c2ccc(S(=O)(=O)NCCOCCOCCOCCC(=O)N3CCN(c4ccc5c(c4)C(=O)N(C4CCC(=O)NC4=O)C5=O)CC3)cc2)nc1C(=O)Nc1ccccc1 (stereo unspecified)
4. CNCc1ccc(-c2nnc(-c3nc(-c4ccc(S(=O)(=O)NCCCCCC(=O)NCC#Cc5cccc6c5CN(C5CCC(=O)NC5=O)C6=O)cc4)cnc3N)o2)cc1 (stereo unspecified)
5. Nc1ncc(-c2ccc(S(=O)(=O)NCCCCC(=O)N3CCN(c4ccc5c(c4)C(=O)N(C4CCC(=O)NC4=O)C5=O)CC3)cc2)nc1C(=O)Nc1ccccc1 (stereo unspecified)
6. CNCc1ccc(-c2nnc(-c3nc(-c4ccc(S(=O)(=O)NCCCCCC(=O)N[C@H](C(=O)N5C[C@H](O)C[C@H]5C(=O)NCc5ccc(-c6scnc6C)cc5)C(C)(C)C)cc4)cnc3N)o2)cc1

Found:
85
103
83
100
82
99

----------
Assay: Chemical stability of the compound in at pH 7.4 measured at 24 hrs by HPLC based non-enzymatic stability assay
Format: physicochemical
Details: buffer, read-out: Stability
So I've got a bunch of compounds here, and I need their remaining at 24 h values.
One number for each entry, in %.

Sample records with remaining at 24 h:
{"compound": "Nc1ncc(-c2ccc(S(=O)(=O)NCCCCC(=O)NCCCC#Cc3cccc4c3CN(C3CCC(=O)NC3=O)C4=O)cc2)nc1C(=O)Nc1ccccc1 (configuration not stated)", "remaining at 24 h / %": 102}
{"compound": "CNCc1ccc(-c2nnc(-c3nc(-c4ccc(S(=O)(=O)NCCCCCC(=O)NCCCC#Cc5cccc6c5CN(C5CCC(=O)NC5=O)C6=O)cc4)cnc3N)o2)cc1 (configuration not stated)", "remaining at 24 h / %": 103}
{"compound": "Nc1ncc(-c2ccc(S(=O)(=O)NCCCCCCC(=O)NCCCC#Cc3cccc4c3CN(C3CCC(=O)NC3=O)C4=O)cc2)nc1C(=O)Nc1ccccc1 (configuration not stated)", "remaining at 24 h / %": 105}

Batch request: remaining at 24 h per item, same order as input.
1. Nc1ncc(-c2ccc(S(=O)(=O)NCCOCCOCCC(=O)N3CCN(c4ccc5c(c4)C(=O)N(C4CCC(=O)NC4=O)C5=O)CC3)cc2)nc1C(=O)Nc1ccccc1 (configuration not stated)
2. CNS(=O)(=O)c1ccc(-c2cnc(N)c(C(=O)Nc3ccccc3)n2)cc1
3. Nc1ncc(-c2ccc(S(=O)(=O)NCCCCCCC(=O)NCCOc3ccc(C4CCC(=O)NC4=O)cc3)cc2)nc1C(=O)Nc1ccccc1 (configuration not stated)
4. Cc1ncsc1-c1ccc(CNC(=O)[C@@H]2C[C@@H](O)CN2C(=O)[C@@H](NC(=O)CCCCCNS(=O)(=O)c2ccc(-c3cnc(N)c(-c4nnc(-c5ccccc5)o4)n3)cc2)C(C)(C)C)cc1
5. CNCc1ccc(-c2nnc(-c3nc(-c4ccc(S(=O)(=O)NCCCCCCC(=O)N5CCN(c6ccc7c(c6)C(=O)N(C6CCC(=O)NC6=O)C7=O)CC5)cc4)cnc3N)o2)cc1 (configuration not stated)
6. Cc1ncsc1-c1ccc(CNC(=O)[C@@H]2C[C@@H](O)CN2C(=O)[C@@H](NC(=O)CCOCCOCCOCCNS(=O)(=O)c2ccc(-c3cnc(N)c(C(=O)Nc4ccccc4)n3)cc2)C(C)(C)C)cc1

Found:
80
100
102
102
91
102

Batch request: remaining at 24 h per item, same order as input.
1. CNCc1ccc(-c2nnc(-c3nc(-c4ccc(S(=O)(=O)NCCCCCC(=O)N5CCN(c6ccc7c(c6)C(=O)N(C6CCC(=O)NC6=O)C7=O)CC5)cc4)cnc3N)o2)cc1 (configuration not stated)
2. CN1C(=O)CCC(N2Cc3c(C#CCCCNC(=O)CCCCCNS(=O)(=O)c4ccc(-c5cnc(N)c(C(=O)Nc6ccccc6)n5)cc4)cccc3C2=O)C1=O (configuration not stated)
3. Cc1ncsc1-c1ccc(CNC(=O)[C@@H]2C[C@@H](O)CN2C(=O)[C@@H](NC(=O)CCCCCNS(=O)(=O)c2ccc(-c3cnc(N)c(C(=O)Nc4ccccc4)n3)cc2)C(C)(C)C)cc1

Found:
[92, 99, 100]

----------
Assay: Chemical stability of the compound in at pH 7.4 measured at 24 hrs by HPLC based non-enzymatic stability assay
Format: physicochemical
Details: buffer, read-out: Stability
readout_name: remaining at 24 h (%)
Numbers only, in %.

Sample records with remaining at 24 h:
{"compound": "CNCc1ccc(-c2nnc(-c3nc(-c4ccc(S(=O)(=O)NCCCCC(=O)N5CCN(c6ccc7c(c6)C(=O)N(C6CCC(=O)NC6=O)C7=O)CC5)cc4)cnc3N)o2)cc1 (stereo not given)", "u": "%", "value_measured": 91}
{"compound": "CNCc1ccc(-c2nnc(-c3nc(-c4ccc(S(=O)(=O)NCCCCCCC(=O)NCC#Cc5cccc6c5CN(C5CCC(=O)NC5=O)C6=O)cc4)cnc3N)o2)cc1 (stereo not given)", "u": "%", "value_measured": 101}
{"compound": "Nc1ncc(-c2ccc(S(=O)(=O)NCCOCCOCCOCCC(=O)N3CCN(c4ccc5c(c4)C(=O)N(C4CCC(=O)NC4=O)C5=O)CC3)cc2)nc1C(=O)Nc1ccccc1 (stereo not given)", "u": "%", "value_measured": 97}
{"compound": "Nc1ncc(-c2ccc(S(=O)(=O)NCCCCC(=O)N3CCN(c4ccc5c(c4)C(=O)N(C4CCC(=O)NC4=O)C5=O)CC3)cc2)nc1-c1nnc(-c2ccccc2)o1 (stereo not given)", "u": "%", "value_measured": 91}

Turning to the following compound.
# remaining at 24 h (compound: CNCc1ccc(-c2nnc(-c3nc(-c4ccc(S(=O)(=O)NCCCCC(=O)NCCCC#Cc5cccc6c5CN(C5CCC(=O)NC5=O)C6=O)cc4)cnc3N)o2)cc1 (stereo not given) ) is 102

----------
Test: Chemical stability of the compound in at pH 7.4 measured at 72 hrs by HPLC based non-enzymatic stability assay
Type: physicochemical
Settings: buffer, read-out: Stability
So I've got a bunch of compounds here, and I need their remaining at 72 h values.
One number for each entry, in %.

Sample records with remaining at 72 h:
{"compound": "Cc1ncsc1-c1ccc(CNC(=O)[C@@H]2C[C@@H](O)CN2C(=O)[C@@H](NC(=O)CCOCCOCCOCCNS(=O)(=O)c2ccc(-c3cnc(N)c(C(=O)Nc4ccccc4)n3)cc2)C(C)(C)C)cc1", "remaining at 72 h / %": 105}
{"compound": "Nc1ncc(-c2ccc(S(=O)(=O)NCCCCCCCC(=O)NCC#Cc3cccc4c3CN(C3CCC(=O)NC3=O)C4=O)cc2)nc1C(=O)Nc1ccccc1 (stereo unspecified)", "remaining at 72 h / %": 47}
{"compound": "Nc1ncc(-c2ccc(S(=O)(=O)NCCCCCC(=O)N3CCN(c4ccc5c(c4)C(=O)N(C4CCC(=O)NC4=O)C5=O)CC3)cc2)nc1-c1nnc(-c2ccccc2)o1 (stereo unspecified)", "remaining at 72 h / %": 73}
{"compound": "Nc1ncc(-c2ccc(S(=O)(=O)NCCCCC(=O)NCCOc3ccc(C4CCC(=O)NC4=O)cc3)cc2)nc1C(=O)Nc1ccccc1 (stereo unspecified)", "remaining at 72 h / %": 99}
{"compound": "Nc1ncc(-c2ccc(S(=O)(=O)NCCCCC(=O)NCCCC#Cc3cccc4c3CN(C3CCC(=O)NC3=O)C4=O)cc2)nc1C(=O)Nc1ccccc1 (stereo unspecified)", "remaining at 72 h / %": 103}

Turning to the following compound.
# remaining at 72 h (compound: CNCc1ccc(-c2nnc(-c3nc(-c4ccc(S(=O)(=O)NCCCCCC(=O)N5CCN(c6ccc7c(c6)C(=O)N(C6CCC(=O)NC6=O)C7=O)CC5)cc4)cnc3N)o2)cc1 (stereo unspecified) ) is 71

FYI, the data here is from ChEMBL document CHEMBL5543092.
